Measured Emax at 10 µM accompanies every entry in the list below.
Tested on: L6-myotubes
run-description: Measurement of intracellular cAMP levels in differentiated L6-myotubes (Biological Example 3)
Type: cell-based
condition-summary: 0.25 h, intracellular cAMP in differentiated L6-myotubes; compound at 10 μM, activity relative to isoproterenol at 10 μM

- smiles-code: "CC12CC(C1)[C@H]([C@H](O)c1cncc(F)c1)N2"
  Emax at 10 µM: "< 25%"
- smiles-code: "CC(C)(NC[C@H](O)c1cccc(F)c1)[C@H]1CC[C@H](OCC(=O)O)CC1"
  Emax at 10 µM: "< 25%"
- smiles-code: "CC(C)(C[C@H]1CC[C@@H](NS(C)(=O)=O)CC1)NC[C@H](O)c1cccc(F)c1"
  Emax at 10 µM: "< 25%"
- smiles-code: "COc1ccc(CCC23CCC([C@@H](O)c4cccc(F)c4)(CC2)N3)cc1"
  Emax at 10 µM: "< 25%"
- smiles-code: "CC12CC(C1)[C@H]([C@@H](O)c1cccc(Cl)c1)N2"
  Emax at 10 µM: "< 25%"
- smiles-code: "O[C@@H](CNCC[C@H]1CC[C@@H](O)CC1)c1cncc(F)c1"
  Emax at 10 µM: "< 25%"
- smiles-code: "CS(=O)(=O)N(Cc1ccccc1)c1ccc(CC23CCC([C@H](O)c4cccc(F)c4)(CC2)N3)cc1"
  Emax at 10 µM: "< 25%"
- smiles-code: "O[C@H](c1cccc(F)c1)C12CCC(COCc3ccc(OC(F)(F)F)cc3)(CC1)N2"
  Emax at 10 µM: "< 25%"
- smiles-code: "COc1ccc(CC23CCC([C@@H](O)c4cccc(F)c4)(CC2)N3)cc1"
  Emax at 10 µM: "< 25%"
- smiles-code: "CO[C@H]1CC[C@H](CCNC[C@H](O)c2cccc(F)c2)CC1"
  Emax at 10 µM: "< 25%"
- smiles-code: "COc1ccc(C[C@@]2(C)CC[C@H]([C@@H](O)c3cccc(F)c3)N2)cc1"
  Emax at 10 µM: "< 25%"
- smiles-code: "O[C@@H](CNC[C@H]1CC[C@H](O)CC1)c1cccc(F)c1"
  Emax at 10 µM: "< 25%"
- smiles-code: "CO[C@H]1CC[C@H](C(C)(C)NC[C@H](O)c2cncc(F)c2)CC1"
  Emax at 10 µM: "< 25%"
- smiles-code: "CC1(C)C[C@H]([C@@H](O)c2cccc(Cl)c2)N1"
  Emax at 10 µM: "< 25%"
- smiles-code: "CCC[C@H]1CCCC[C@@H]([C@H](O)c2cncc(F)c2)N1"
  Emax at 10 µM: "< 25%"
- smiles-code: "CS(=O)(=O)N(Cc1ccccc1)[C@H]1CC[C@@H](C[C@@H]2CC[C@H]([C@@H](O)c3cccc(F)c3)N2)CC1"
  Emax at 10 µM: "< 25%"
- smiles-code: "CC12CC(C1)[C@H]([C@H](O)c1ccccc1F)N2"
  Emax at 10 µM: "> 75%"

Data origin: patent US20260216294A1
